# key: entry, value: concentration at 1 h
# experiment: Concentration of DFT analogs in rat plasma and cerebrospinal fluid after PO or SC dose
# Assay type: in vivo, Sprague-Dawley rats
# assayConditions: male, Sprague-Dawley, rat, plasma; rats, PO 300 μmol/kg, monosodium salt, 1 h; read-out: Concentration in plasma

- compound: "COCCOCCOCCOc1ccc(C2=N[C@@](C)(C(=O)O)CS2)c(O)c1 [IV-A, (S)-4′-(HO)-DADFT-PE]"
  unitAbbreviation: "µM"
  concentration at 1 h: 64
- compound: "COCCOCCOc1ccc(C2=N[C@@](C)(C(=O)O)CS2)c(O)c1 [III-A, (S)-4′-(HO)-DADFT-norPE]"
  unitAbbreviation: "µM"
  concentration at 1 h: 219
